run description: Enhancement of bioavailability of drugs given to rats with bioenhancers (plasma drug level by HPLC)
run conditions: drug with Zingiber officinale 50% alcoholic extract of fresh ginger 35 mg/kg, drug dose as in row
reported endpoint: % Enhancement in bioavailability, BE from Zingiber officinale

# compound, observed result
data = [
    ("[K+]", "nil"),
    ("CC1(C)S[C@@H]2[C@H](NC(=O)[C@H](N)c3ccc(O)cc3)C(=O)N2[C@H]1C(=O)O", "80%"),
    ("CS(=O)(=O)c1ccc(C2=C(c3ccccc3)C(=O)OC2)cc1", "Nil"),
    ("[Ca+2]", "nil"),
    ("COc1c(C)c2c(c(O)c1C/C=C(\\C)CCC(=O)OCCN1CCOCC1)C(=O)OC2 [Mycophenolate Mofeit]", "Nil"),
]

Query :: Could you please provide reported % Enhancement in bioavailability, BE from Zingiber officinale for `Cc1ncc(CO)c(CO)c1O` ? Thanks!
Result :: Nil

Query :: Could you please provide reported % Enhancement in bioavailability, BE from Zingiber officinale for CC(C)(C)NCC(O)c1ccc(O)c(CO)c1 (stereo not shown) ? Thanks!
Result :: 78%
